// reported IC50 per item
# Tested on: human keratinocytes (HaCaT)
# Assay Procedure: Effect on proliferation of human keratinocytes, CCK-8, 48 h (Example 5)
# Format: cell-based
# Conditions Used: 48 hours of treatment
Give just the numeric value; µM need not be written.

Would you mind telling me what IC50 value was observed for C=C1C(=O)C23C(O)CC4C(C)(C)c5nc(N(C(C)C)C(C)C)sc5CC4(C)C2CCC1C3O (centres unmarked) ?
2.37

Would you mind telling me what IC50 value was observed for Br.C=C1C(=O)C23C(O)CC4C(C)(C)c5nc(NC)sc5CC4(C)C2CCC1C3O (centres unmarked) ?
3.17

Would you mind telling me what IC50 value was observed for C=C1C(=O)C23C(O)CC4C(C)(C)c5nc(N)sc5CC4(C)C2CCC1C3O (centres unmarked) [Compound 05] ?
3.45

Would you mind telling me what IC50 value was observed for C=C1C(=O)C23C(O)CC4C(C)(C)c5nc(NN)sc5CC4(C)C2CCC1C3O (centres unmarked) ?
1.21

Would you mind telling me what IC50 value was observed for C=C1C(=O)C23C(O)CC4C(C)(C)c5nc(Nc6ccccc6)sc5CC4(C)C2CCC1C3O (centres unmarked) ?
9.31

Would you mind telling me what IC50 value was observed for C=C1C(=O)C23C(O)CC4C(C)(C)c5nc(N)sc5CC4(C)C2CCC1C3O (centres unmarked) [Compound 06] ?
2.91

Would you mind telling me what IC50 value was observed for C=C1C(=O)C23C(O)CC4C(C)(C)c5nc(N)sc5CC4(C)C2CCC1C3O (centres unmarked) [Compound 10] ?
3.86

Would you mind telling me what IC50 value was observed for C=C1C(=O)C23C(O)CC4C(C)(C)c5nc(NCC)sc5CC4(C)C2CCC1C3O (centres unmarked) ?
5.49

Next:
Would you mind telling me what IC50 value was observed for C=C1C(=O)C23C(O)CC4C(C)(C)c5nc(N)sc5CC4(C)C2CCC1C3O (centres unmarked) [Compound 01] ?
3.21

Would you mind telling me what IC50 value was observed for C=C1C(=O)C23C(O)CC4C(C)(C)c5nc(NCCC)sc5CC4(C)C2CCC1C3O (centres unmarked) [Compound 26] ?
7.86

Would you mind telling me what IC50 value was observed for C=C1C(=O)C23C(O)CC4C(C)(C)c5nc(NC6CCCCC6)sc5CC4(C)C2CCC1C3O (centres unmarked) ?
8.16

Would you mind telling me what IC50 value was observed for C=C1C(=O)C23C(O)CC4C(C)(C)c5nc(N)sc5CC4(C)C2CCC1C3O (centres unmarked) [Compound 11] ?
3

Would you mind telling me what IC50 value was observed for C=C1C(=O)C23C(O)CC4C(C)(C)c5nc(NCCCCCC)sc5CC4(C)C2CCC1C3O (centres unmarked) ?
4.29

Would you mind telling me what IC50 value was observed for C=C1C(=O)C23C(O)CC4C(C)(C)c5nc(N)sc5CC4(C)C2CCC1C3O (centres unmarked) [Compound 08] ?
2.85

Would you mind telling me what IC50 value was observed for C=C1C(=O)C23C(O)CC4C(C)(C)c5nc(N)sc5CC4(C)C2CCC1C3O (centres unmarked) [Compound 04] ?
4.1

Would you mind telling me what IC50 value was observed for C=C1C(=O)C23C(O)CC4C(C)(C)c5nc(NCCC)sc5CC4(C)C2CCC1C3O (centres unmarked) [Compound 14] ?
7

Would you mind telling me what IC50 value was observed for C=C1C(=O)C23C(O)CC4C(C)(C)c5nc(N)sc5CC4(C)C2CCC1C3O (centres unmarked) [Compound 03] ?
4.02
